Listed here are binders together with their documented cGMP conc [nM] at 1 uM FabCys, without ANP.
Target: T1, human NPR1 expressed on CHO-K1 cells (human, UniProt P16066 33-1061)
T1 sequence: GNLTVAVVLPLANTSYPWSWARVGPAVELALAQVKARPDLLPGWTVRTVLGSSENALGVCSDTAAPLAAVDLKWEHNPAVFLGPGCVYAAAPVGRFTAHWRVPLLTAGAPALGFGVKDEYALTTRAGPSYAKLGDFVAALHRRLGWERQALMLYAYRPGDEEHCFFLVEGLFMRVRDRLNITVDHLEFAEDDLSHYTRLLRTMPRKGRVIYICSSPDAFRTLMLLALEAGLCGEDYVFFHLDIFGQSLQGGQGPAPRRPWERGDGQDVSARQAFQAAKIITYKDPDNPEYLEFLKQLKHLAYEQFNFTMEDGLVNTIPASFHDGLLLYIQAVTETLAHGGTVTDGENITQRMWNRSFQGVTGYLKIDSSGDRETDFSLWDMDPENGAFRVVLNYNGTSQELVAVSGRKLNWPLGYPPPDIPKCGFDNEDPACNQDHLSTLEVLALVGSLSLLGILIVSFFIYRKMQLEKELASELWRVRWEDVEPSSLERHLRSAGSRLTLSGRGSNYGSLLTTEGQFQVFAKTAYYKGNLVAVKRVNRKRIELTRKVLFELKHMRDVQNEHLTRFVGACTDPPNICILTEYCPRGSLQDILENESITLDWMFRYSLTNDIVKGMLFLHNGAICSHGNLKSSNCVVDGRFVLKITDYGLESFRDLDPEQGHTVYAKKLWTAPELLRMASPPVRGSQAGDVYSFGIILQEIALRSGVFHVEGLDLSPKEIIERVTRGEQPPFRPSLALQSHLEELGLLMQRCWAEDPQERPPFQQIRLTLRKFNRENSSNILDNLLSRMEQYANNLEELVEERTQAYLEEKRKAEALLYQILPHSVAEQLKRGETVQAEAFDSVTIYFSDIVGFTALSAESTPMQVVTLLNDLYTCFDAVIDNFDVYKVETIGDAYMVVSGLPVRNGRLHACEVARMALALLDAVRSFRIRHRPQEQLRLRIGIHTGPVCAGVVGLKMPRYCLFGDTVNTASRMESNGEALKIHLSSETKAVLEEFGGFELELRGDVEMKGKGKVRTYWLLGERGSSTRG
Assay: cell-based or functional assay
// note: answer is a bare numeric in nM

Answered examples (2):
- binder: "YY07 FabCys (Fab, V domains shown) VH: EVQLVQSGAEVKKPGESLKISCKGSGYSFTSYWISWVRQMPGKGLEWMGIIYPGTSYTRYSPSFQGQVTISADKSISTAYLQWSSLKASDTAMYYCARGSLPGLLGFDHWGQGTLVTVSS VL: QSVLTQPPSVSGAPGQRVTISCTGSSSNIGAGYDVHWYQQLPGTAPKLLIYGNSNRPNGVPDRFSGSKSGTSASLAITGLQAEDEADYYCQSYDSPTSSSVFGGGTKLTVL"
  test-value: 77
- binder: "YY06 FabCys (Fab, V domains shown) VH: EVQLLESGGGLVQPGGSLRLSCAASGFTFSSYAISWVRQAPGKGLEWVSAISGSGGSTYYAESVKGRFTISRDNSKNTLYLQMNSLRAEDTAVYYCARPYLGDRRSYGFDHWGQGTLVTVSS VL: QSALTQPASVSGSPGQSITISCTGTSSDVGSYNLVSWYQQHPGKAPKLMIYEGSKRPSGVSNRFSGSKSGNTASLTISGLQAEDEADYYCSSYGFHIVVVVFGGGTKLTVL"
  test-value: 20

What does the data say about its cGMP conc [nM] at 1 uM FabCys, without ANP? Entry: YY05 FabCys (Fab, V domains shown) VH: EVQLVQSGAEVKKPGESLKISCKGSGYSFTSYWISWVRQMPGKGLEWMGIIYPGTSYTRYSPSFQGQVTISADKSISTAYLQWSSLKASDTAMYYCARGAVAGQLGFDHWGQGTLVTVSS VL: QSVLTQPPSVSGAPGQRVTISCTGSSSNIGAGYDVHWYQQLPGTAPKLLIYGNSNRPSGVPDRFSGSKSGTSASLAITGLQAEDEADYYCQSYYTSSHGPVFGGGTKLTVL
207

What does the data say about its cGMP conc [nM] at 1 uM FabCys, without ANP? Entry: YY04 FabCys (Fab, V domains shown) VH: EVQLVESGGGLVKPGGSLRLSCAASGFTFSNYWISWVRQAPGKGLEWVGRIKSKTYGGTTDYAEPVKGRFTISRDDSKNTLYLQMNSLKTEDTAVYYCAREKYSIRARGHGDYGFDVWGQGTLVTVSS VL: DIQMTQSPSSLSASVGDRVTITCRASQGISNYLAWYQQKPGKVPKLLIYAASTLQSGVPSRFSGSGSGTDFTLTISSLQPEDVATYYCQQGYHAPFTFGQGTKVEIK
18
